Experiment: NCI Yeast Anticancer Drug Screen. Data for the cln2 rad14 strain (AID 165);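 also: 0% = growth equal to vehicle treated cultures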
Conditions: S. cerevisiae cln2 rad14 strain, at 50.0 µM, stronger effect = higher value
The panel holds about 79,000 compounds, 15% with a hit somewhere; the sample as a whole holds those more often.
observation type: growth inhibition (%)
Could you give me the number in %? Just the number is fine.

NC(=O)c1ncn2c(=O)n(CCl)nnc12 = 45.5
CCc1cc2c(c3c1CCCC3)CC1(Cc3ccc(C(=O)OC)cc3C1)C2 (stereo not drawn) = 10.3
C/C(Cc1cccc2ccccc12)=N/NC(N)=O = -8
O=C(OCCO)c1ccc(O)c(O)c1 = -25.8
O=C(CSc1nnc(-c2ccccc2NC(=O)C(F)(F)F)c(=O)[nH]1)NC(=O)Nc1ccccc1 = 16.3
Cc1ccc(S(=O)(=O)NN=C2C(C)(C)C(=O)C2(C)C)cc1 = 32.1
Cc1ccc2c(Nc3ccc(NS(C)(=O)=O)cc3C)c3ccccc3nc2c1 = 4.2
Cc1ccc(Sc2ccc3ccccc3c2)nc1 = -12.2

The value of growth inhibition measured for the compound O=C1C=CC2C=CC1C=C2 turned out to be 1.15

// sample COC(=O)C(CCS(=O)(=O)CC(=O)C(=O)Nc1cccc(C(C)=O)c1)C(=O)OC , its growth inhibition was -17.1

Recorded result, COC(=O)CC(=O)c1cccc([N+](=O)[O-])c1 , growth inhibition: 16.5

Form: compound = CCC(=O)OCCCCC1CCCO1 (stereo not drawn) ; growth inhibition = 2.75

CCCCCC1(C=O)C(=O)NC(=O)N1C (stereo not drawn) has a reported growth inhibition of -0.45

====

Assay: NCI Yeast Anticancer Drug Screen. Data for the rad50 strain (AID 155);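 also: 0% = growth of vehicle-only cultures of the same strain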
Conditions: S. cerevisiae rad50 strain growth inhibition; at 50.0 µM; stronger effect = higher value
Description: Growth inhibition of yeast strains with defined genetic alterations is measured as a screen for potential anti-cancer activity. Selected strains with alterations in DNA damage repair or cell cycle control were exposed to compounds and growth inhibition was measured relative to vehicle treated controls. The strain used in this assay is rad50
The panel holds about 79,000 compounds, 15% with a hit somewhere; the sample as a whole holds those more often. Activity calls are given as the source filed them. Cut-off read from the data, not from the text of the source: active = growth inhibition above about 70%; inactive = the rest.
Reported values of growth inhibition for individual entries

CC(=O)c1c[nH]cc1CO = -1.7% (inactive)

The compound listed as NC(=O)C1CCc2ccccc2C1 (configuration not stated) has a reported growth inhibition of 0.7% (inactive)

CCOC(C[N+](C)(C)C)OCC has a reported growth inhibition of 9.7% (inactive)

Entry C=CCn1c(=S)sc2c(=O)[nH]cnc21 , growth inhibition reported as 14.6% (inactive)

get_value(item= CCS(=O)(=O)OCCOC , readout=growth inhibition) returns -2.65% (inactive)

====

The compounds listed here are annotated with their growth inhibition.
Test: NCI Yeast Anticancer Drug Screen. Data for the rad50 strain (AID 155);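 also: 0% = growth of vehicle-only cultures of the same strain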
Details: S. cerevisiae rad50 strain growth inhibition; at 50.0 µM; stronger effect = higher value
Method: Growth inhibition of yeast strains with defined genetic alterations is measured as a screen for potential anti-cancer activity. Selected strains with alterations in DNA damage repair or cell cycle control were exposed to compounds and growth inhibition was measured relative to vehicle treated controls. The strain used in this assay is rad50
Compounds without any hit were thinned out: in the full panel of roughly 79,000, 15% have a hit. Where a SMILES comes first, the peptide text is derived from it. [ ]: non-standard residue; d: D form. The star is where a group is joined. Ac5c = NC1(C(=O)O)CCCC1; Cbz = O=C(OCc1ccccc1)*; Boc = CC(C)(C)OC(=O)*; tBu = CC(C)(C)*
Your answer is read as %, so omit the unit and give the number.

Completed entries (count: 8):
COc1ccc(NC(=O)Nc2cccc(Cl)c2C)c(OC)c1 = -0.9
COC(=O)C1(NC(=O)C(Cc2ccccc2)NC(=O)C(NC(=O)C(CCCCNC(=O)OC(C)(C)C)NC(=O)C(Cc2c[nH]c3ccccc23)NC(=O)C(Cc2ccccc2)NC(=O)OCc2ccccc2)C(C)OC(C)(C)C)CCCC1 (configuration not stated) (Cbz-FWK(Boc)T(tBu)F[Ac5c]-OMe; configuration not given here) = -11.9
O=C(Nc1cccc2ccccc12)c1ccccc1 = 18.4
CCCC(C)NC(=O)c1ccc(OCC)cc1 (configuration not stated) = -12.6
O=C(Nc1ccc(Cl)c(Cl)c1)Oc1ccc(-c2ccccc2)cc1 = 73.2
NC(=O)c1cc2ccccc2c2ccccc12 = 0.65
O=c1c2cc(Cl)ccc2on1CN1CCOCC1 = 3.4
C[C@@H]1CC[C@@H](C)[C@](C)(CCc2ccoc2)C/C=C\C=C/1C(=O)O = 85.2

growth inhibition reading for Clc1cccc(Cl)c1C1SCc2nc3ncccc3n21 (configuration not stated) : 14.1

Short answer for c1cc2c([nH]1)CCCC2 : growth inhibition was 12.5

Please fill in: growth inhibition reported for N#CSC1CCCCC1SC#N (configuration not stated) = 11.3

growth inhibition measured on COc1ccc(-c2cc(=O)c3ccc(O)cc3o2)c(OC)c1OC = -4.7
